# credit: ChEMBL document CHEMBL4007422

assay: Oral bioavailability in Beagle dog at 10 mg/kg; type: ADME, organism-based, Canis lupus familiaris; settings: in vivo
OBSERVATION TYPE: bioavailability

Looking up COc1ccc2c(c1)c(CN1CCN(C)CC1)cn2S(=O)(=O)c1ccccc1Br.CS(=O)(=O)O.O , I found its bioavailability recorded as 35%

* * *

experiment: Protein binding in human plasma at 1 uM after 6 hrs by LC-MS/MS based rapid equilibrium dialysis method; assay type: ADME, cell-free; conditions: read-out: PPB (converted)
OBSERVATION TYPE: fraction unbound at 6 h, 1 µM
Give bare numbers.

Record summary for COc1ccc2c(c1)c(CN1CCN(C)CC1)cn2S(=O)(=O)c1ccccc1Br.CS(=O)(=O)O.O : reported fraction unbound at 6 h, 1 µM = 0.02

* * *

assay: Protein binding in dog plasma at 1 uM after 6 hrs by LC-MS/MS based rapid equilibrium dialysis method; format: ADME, cell-free, Canis lupus familiaris; details: read-out: PPB (converted)
OBSERVATION TYPE: fraction unbound at 6 h, 1 µM

So for COc1ccc2c(c1)c(CN1CCN(C)CC1)cn2S(=O)(=O)c1ccccc1Br.CS(=O)(=O)O.O , the logged fraction unbound at 6 h, 1 µM turned out to be 0.014

* * *

target: Cytochrome P450 2D6 (Homo sapiens, UniProt P10635)
Sequence (P10635 whole entry): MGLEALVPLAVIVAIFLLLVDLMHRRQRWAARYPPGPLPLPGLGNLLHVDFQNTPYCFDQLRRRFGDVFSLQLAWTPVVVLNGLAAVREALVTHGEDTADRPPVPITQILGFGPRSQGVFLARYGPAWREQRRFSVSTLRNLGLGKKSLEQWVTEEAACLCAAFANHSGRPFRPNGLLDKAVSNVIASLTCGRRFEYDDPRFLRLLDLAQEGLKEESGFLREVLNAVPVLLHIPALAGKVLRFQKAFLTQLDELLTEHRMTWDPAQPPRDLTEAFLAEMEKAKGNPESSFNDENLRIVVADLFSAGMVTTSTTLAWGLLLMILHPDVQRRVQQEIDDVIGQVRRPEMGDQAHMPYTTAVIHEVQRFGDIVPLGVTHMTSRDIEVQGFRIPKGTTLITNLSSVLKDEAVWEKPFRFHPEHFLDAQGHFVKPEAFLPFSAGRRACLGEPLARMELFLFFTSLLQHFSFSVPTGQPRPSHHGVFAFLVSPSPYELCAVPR
OBSERVATION TYPE: IC50 (µM)
Answers are plain numbers, in µM.

Provide each entry's IC50 from the list below.
1. CC(C)c1ccc(S(=O)(=O)n2cc(CN3CCN(C)CC3)c3cc(F)ccc32)cc1.Cl.Cl
2. COc1ccc2c(c1)c(CN1CCCN(C)CC1)cn2S(=O)(=O)c1ccc(C(C)C)cc1.Cl.Cl
3. COc1ccc2c(c1)c(CN1CCN(C)CC1)cn2S(=O)(=O)c1ccccc1Br.CS(=O)(=O)O.O
4. COc1ccc2c(c1)c(CN1CCN(C)CC1)cn2S(=O)(=O)c1ccc(F)cc1.CS(=O)(=O)O.CS(=O)(=O)O
5. COc1cccc2c1c(CN1CCN(C)CC1)cn2S(=O)(=O)c1ccc(C(C)C)cc1.Cl.Cl
6. COc1ccc2c(c1)c(CN1CCN(C)CC1)cn2S(=O)(=O)c1ccc(C(C)C)cc1.CS(=O)(=O)O.CS(=O)(=O)O

7.7
1.9
13.2
12.6
9.7
33.5

* * *

target: 5-hydroxytryptamine receptor 1A (Homo sapiens); assay: Displacement of [3H]-8-OH-DPAT from recombinant human 5-HT1A receptor expressed in HEK293 EBNA cell membranes after 120 mins by microbeta scintillation counting analysis
The source made the active and inactive calls. The rule behind the calls is not given here.
OBSERVATION TYPE: Activity

INSERT INTO measurements (chemical_smiles, target_under_test, observation_type, reported_measurement) VALUES
  ('COc1ccc2c(c1)c(CN1CCN(C)CC1)cn2S(=O)(=O)c1ccccc1Br.CS(=O)(=O)O.O', '5-hydroxytryptamine receptor 1A (Homo sapiens)', 'Activity', 'inactive'),
  ('CN1CCN(Cc2cn(S(=O)(=O)c3ccccc3)c3ccccc23)CC1.Cl.Cl', '5-hydroxytryptamine receptor 1A (Homo sapiens)', 'Activity', 'inactive'),
  ('COc1ccc2c(c1)c(CN1CCN(C)CC1)cn2S(=O)(=O)c1ccc(C(C)C)cc1.CS(=O)(=O)O.CS(=O)(=O)O', '5-hydroxytryptamine receptor 1A (Homo sapiens)', 'Activity', 'inactive');

* * *

Target sequence: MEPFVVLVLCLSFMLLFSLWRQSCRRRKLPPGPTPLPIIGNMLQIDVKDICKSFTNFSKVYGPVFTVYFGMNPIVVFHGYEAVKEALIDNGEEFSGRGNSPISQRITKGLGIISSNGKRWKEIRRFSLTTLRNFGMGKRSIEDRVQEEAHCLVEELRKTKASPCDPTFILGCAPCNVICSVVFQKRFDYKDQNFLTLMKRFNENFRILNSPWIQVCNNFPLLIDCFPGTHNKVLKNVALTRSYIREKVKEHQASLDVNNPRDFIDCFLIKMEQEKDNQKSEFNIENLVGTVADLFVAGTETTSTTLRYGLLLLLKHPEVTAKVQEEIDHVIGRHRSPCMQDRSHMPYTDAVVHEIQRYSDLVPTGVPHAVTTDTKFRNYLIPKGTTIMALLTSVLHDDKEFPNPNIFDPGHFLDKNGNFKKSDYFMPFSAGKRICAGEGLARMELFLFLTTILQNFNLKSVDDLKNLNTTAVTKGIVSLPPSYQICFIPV
OBSERVATION TYPE: IC50

Documented IC50 of COc1ccc2c(c1)c(CN1CCN(C)CC1)cn2S(=O)(=O)c1ccccc1Br.CS(=O)(=O)O.O : > 10 µM

* * *

molecular target: Cytochrome P450 3A4 (Homo sapiens)
Sequence (P08684 whole entry): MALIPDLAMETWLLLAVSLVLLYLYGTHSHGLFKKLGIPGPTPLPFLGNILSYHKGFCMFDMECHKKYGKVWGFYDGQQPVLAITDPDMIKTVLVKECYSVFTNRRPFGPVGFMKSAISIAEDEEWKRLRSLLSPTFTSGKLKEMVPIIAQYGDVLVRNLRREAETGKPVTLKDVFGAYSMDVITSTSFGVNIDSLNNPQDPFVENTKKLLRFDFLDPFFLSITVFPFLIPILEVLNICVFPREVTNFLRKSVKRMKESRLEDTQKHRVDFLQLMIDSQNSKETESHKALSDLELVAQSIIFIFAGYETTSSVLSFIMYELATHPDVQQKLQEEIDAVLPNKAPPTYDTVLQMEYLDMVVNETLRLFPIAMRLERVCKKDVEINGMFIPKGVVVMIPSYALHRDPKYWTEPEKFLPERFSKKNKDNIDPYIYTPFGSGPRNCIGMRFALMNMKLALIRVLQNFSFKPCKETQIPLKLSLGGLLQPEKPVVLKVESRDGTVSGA
Task for the reader: assign each of the following compounds its reported pIC50.
Give bare numbers, as −log10 of the molar value.

Examples with their reported pIC50 follow.
INSERT INTO results (chemical_smiles, reported_measurement) VALUES
  ('COc1ccc2c(c1)c(CN1CCN(C)CC1)cn2S(=O)(=O)c1ccc(F)cc1.CS(=O)(=O)O.CS(=O)(=O)O', 5.77),
  ('COc1ccc2c(c1)c(CN1CCN(C)CC1)cn2S(=O)(=O)c1ccc(C(C)C)cc1.CS(=O)(=O)O.CS(=O)(=O)O', 5.73),
  ('CC(C)c1ccc(S(=O)(=O)n2cc(CN3CCN(C)CC3)c3cc(F)ccc32)cc1.Cl.Cl', 5.85),
  ('COc1ccc2c(c1)c(CN1CCCN(C)CC1)cn2S(=O)(=O)c1ccc(C(C)C)cc1.Cl.Cl', 5.66);

Shift focus to the following entry.
Looking up COc1ccc2c(c1)c(CN1CCN(C)CC1)cn2S(=O)(=O)c1ccccc1Br.CS(=O)(=O)O.O , I found its pIC50 recorded as 5.82

* * *

experiment: Cmax in Wistar rat at 10 mg/kg, po by LC-MS/MS analysis; assay type: ADME, organism-based; set-up: dose 10 mg/kg, route oral; conditions: in vivo
Would you mind telling me the reported Cmax of each entry?
Numbers only, in µg/mL.

Batch: Cmax for all items listed.
1. COc1ccc2c(c1)c(CN1CCCN(C)CC1)cn2S(=O)(=O)c1ccc(C(C)C)cc1.Cl.Cl
2. COc1ccc2c(c1)c(CN1CCN(C)CC1)cn2S(=O)(=O)c1ccc(C(C)C)cc1.CS(=O)(=O)O.CS(=O)(=O)O
3. CN1CCN(Cc2cn(S(=O)(=O)c3ccc(F)cc3)c3ccccc23)CC1
4. COc1ccc2c(c1)c(CN1CCN(C)CC1)cn2S(=O)(=O)c1ccc(F)cc1.CS(=O)(=O)O.CS(=O)(=O)O

[0.022, 0.0564, 0.125, 0.055]

Each molecule below has a recorded value; state its Cmax.
1. CN1CCN(Cc2cn(S(=O)(=O)c3ccccc3)c3ccccc23)CC1.Cl.Cl
2. COc1cccc2c1c(CN1CCN(C)CC1)cn2S(=O)(=O)c1ccc(C(C)C)cc1.Cl.Cl
3. CC(C)c1ccc(S(=O)(=O)n2cc(CN3CCN(C)CC3)c3cc(F)ccc32)cc1.Cl.Cl

[1.23, 0.0456, 1.9]

Notebook: COc1ccc2c(c1)c(CN1CCN(C)CC1)cn2S(=O)(=O)c1ccccc1Br.CS(=O)(=O)O.O , Cmax read as 0.272

* * *

experiment: Apparent volume of distribution in Wistar rat at 10 mg/kg, iv by LC-MS/MS analysis; assay type: ADME, organism-based; conditions: in vivo, read-out: Vz
# binarize Vd: threshold 5 L/kg inclusive, high side t, low side f

Consider the following illustrative entries.
INSERT INTO measurements (chemical_smiles, answer_label) VALUES
  ('COc1cccc2c1c(CN1CCN(C)CC1)cn2S(=O)(=O)c1ccc(C(C)C)cc1.Cl.Cl', 't'),
  ('COc1ccc2c(c1)c(CN1CCN(C)CC1)cn2S(=O)(=O)c1ccccc1Br.CS(=O)(=O)O.O', 'f'),
  ('CN1CCN(Cc2cn(S(=O)(=O)c3ccc(F)cc3)c3ccccc23)CC1', 't');

Please check the record COc1ccc2c(c1)c(CN1CCN(C)CC1)cn2S(=O)(=O)c1ccc(F)cc1.CS(=O)(=O)O.CS(=O)(=O)O and state if its Vd is at or above 5 L/kg.
t

Form field: Vd at least 5 L/kg? Entry: CC(C)c1ccc(S(=O)(=O)n2cc(CN3CCN(C)CC3)c3cc(F)ccc32)cc1.Cl.Cl
f

Is reported Vd greater than or equal to 5 L/kg here: COc1ccc2c(c1)c(CN1CCCN(C)CC1)cn2S(=O)(=O)c1ccc(C(C)C)cc1.Cl.Cl
t

Could you tell me if the measured Vd of COc1ccc2c(c1)c(CN1CCN(C)CC1)cn2S(=O)(=O)c1ccc(C(C)C)cc1.CS(=O)(=O)O.CS(=O)(=O)O reaches 5 L/kg or more?
t

Does the reported Vd for CN1CCN(Cc2cn(S(=O)(=O)c3ccccc3)c3ccccc23)CC1.Cl.Cl fall at or above the 5 L/kg mark?
f

* * *

experiment: Terminal half life in Beagle dog at 10 mg/kg, po; type: ADME, organism-based, Canis lupus familiaris; details: in vivo, read-out: beta t1/2 (converted)
OBSERVATION TYPE: half-life
Answer with the value and then the unit.

Record COc1ccc2c(c1)c(CN1CCN(C)CC1)cn2S(=O)(=O)c1ccccc1Br.CS(=O)(=O)O.O . Reported half-life: 210 min
